// data source = the supplement of paper PMC11208160

Experiment: recombinant barcode read abundance after kanamycin selection (control-corrected) (log10(CPM+1)); higher = more efficient recombination; sequences stand for … in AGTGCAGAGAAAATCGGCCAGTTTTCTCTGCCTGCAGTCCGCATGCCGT…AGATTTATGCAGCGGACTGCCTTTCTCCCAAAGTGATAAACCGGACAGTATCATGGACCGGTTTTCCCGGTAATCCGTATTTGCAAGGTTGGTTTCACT; site = the 11-nt target;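 further: IS621 recombinase and bridge RNA in Escherichia coli cells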
readout_type: recombinant barcode read abundance (log10)

Examples from the recorded data:
seq_string	measured_result
TGGCCTTCTTGGGTTCTAACCTGTTGCCT (site TTGCCTTCTAG)	0.0528
GTCACCTCTTGGGTTCTAACCTGTTGCCT (site GTCTCCTCTAG)	0.105
TTACCAACTTGGGTTCTAACCTGTTGCCT (site TTACCAACTAG)	1.61
CATTCTGCTTGGGTTCTAACCTGTTGCCT (site CAATCTGCTAG)	0.136
CGTCCTGCTTGGGTTCTAACCTGTTGCTT (site CGTCCTGCTAA)	0.527
ATGACCTCTTGGGTTCTAACCTGTTGCCT (site ATGCCCTCTAG)	0.0297
CTAACTACTTGGGTTCTAACCTGTTGCGT (site CTAACTACTAC)	0.181
GCCTGTTCTTGGGTTCTAACCTGTTGCCT (site GCCTGTTCTAG)	0.462
CTGCACCCTTGGGTTCTAACCTGTTGCCT (site CGCCACCCTAG)	0.411
GATCCATCTTGGGTTCTAACCTGTTGCCT (site GCTCCATCTAG)	0.251

Ask | Give its recombinant barcode read abundance (log10) value. Item: AATTGCCCTTGGGTTCTAACCTGTTGCCT (site AGTTGCCCTAG)
Reply | 0.0557

Ask | What does the data say about its recombinant barcode read abundance (log10)? Entry: TCTGGGGCTTGGGTTCTAACCTGTTGCCG (site TCTGGGGCTCC)
Reply | 1.44
